# key: entry, value: inhibition at 20 µM (stock)
targetOfAssay: Recombinant human GR (Homo sapiens, UniProt P04150)
Construct: purchased Invitrogen P2816
Sequence (P04150 1-777): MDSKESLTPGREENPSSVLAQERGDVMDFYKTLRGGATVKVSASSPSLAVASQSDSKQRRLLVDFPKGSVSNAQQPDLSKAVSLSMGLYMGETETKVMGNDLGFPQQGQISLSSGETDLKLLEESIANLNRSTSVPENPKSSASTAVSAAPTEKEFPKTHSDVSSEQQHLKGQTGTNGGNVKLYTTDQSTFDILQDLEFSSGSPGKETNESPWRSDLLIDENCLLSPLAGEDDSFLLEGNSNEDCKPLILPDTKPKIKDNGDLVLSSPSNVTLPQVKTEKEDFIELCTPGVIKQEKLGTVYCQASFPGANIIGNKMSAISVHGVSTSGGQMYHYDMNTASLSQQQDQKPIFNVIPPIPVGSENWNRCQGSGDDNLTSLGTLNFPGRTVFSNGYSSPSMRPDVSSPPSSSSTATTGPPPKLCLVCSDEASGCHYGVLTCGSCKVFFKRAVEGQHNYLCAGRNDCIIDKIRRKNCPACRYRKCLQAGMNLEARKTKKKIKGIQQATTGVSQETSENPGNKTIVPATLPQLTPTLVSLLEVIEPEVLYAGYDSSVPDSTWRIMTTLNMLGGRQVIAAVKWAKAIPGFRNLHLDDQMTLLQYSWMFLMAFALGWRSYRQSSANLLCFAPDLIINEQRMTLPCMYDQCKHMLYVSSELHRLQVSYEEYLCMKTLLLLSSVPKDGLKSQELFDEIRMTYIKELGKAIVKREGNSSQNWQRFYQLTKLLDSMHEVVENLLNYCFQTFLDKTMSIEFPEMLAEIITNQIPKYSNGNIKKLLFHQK
assayNotes: GR competitor assay (receptor competitor assay by fluorescence polarization, Invitrogen kit P2816)
conditionContext: 20 μM test compound solution (10 μL per well plus 5 μL 4×GS1 and 5 μL 4×GR); relative to 2 mM dexamethasone positive control; ratios of 100% or more are indicated by 100%; read-out: GR Binding ratio (%)
Description: In order to evaluate a binding activity to GR, a receptor competitor assay was carried out by a fluorescence polarization method. […] 3) By using a multimode plate reader, Analyst™ HT (manufactured by LJL Biosystems), fluorescence polarization of each well was measured. […] A GR binding ratio (%) was calculated from the following equation. […]
Write the number in % without appending the unit.

Illustrative cases are given below, each with its answer.
# inputSmiles, targetOfAssay, measurementUnits, inhibition at 20 µM (stock)
measured = [
    ("COc1cc(OC(=O)c2ccco2)ccc1-c1ccc2c(c1COC(=O)c1ccc(C)cc1)C(C)=CC(C)(C)N2", "Recombinant human GR (Homo sapiens, UniProt P04150)", "%", 100),
    ("COc1cc(OC(=O)c2ccccc2Cl)ccc1-c1ccc2c(c1COC(=O)c1ccc(C)cc1)C(C)=CC(C)(C)N2", "Recombinant human GR (Homo sapiens, UniProt P04150)", "%", 100),
]

Now consider the entry below.
Reported inhibition at 20 µM (stock) for COc1cc(OS(=O)(=O)CC(C)C)ccc1-c1ccc2c(c1COC(=O)c1ccc(C)s1)C(C)=CC(C)(C)N2 : what is it?
97
